Measured melting point of individual entries

[[record]]
compound = "Cc1nc2ccccc2c(=O)n1CCN1CCC(c2noc3cc(F)ccc23)CC1"
measurement_name = "melting point"
result = "164 to 165 °C"

[[record]]
compound = "CCCn1cc(C2(c3cccc(-c4cccnc4F)c3)N=C(N)N(C)C2=O)cc1C(=O)CC (configuration not stated)"
measurement_name = "melting point"
result = "118 °C"

[[record]]
compound = "C=Cn1cc(C(=O)O)c(=O)c2cc(F)c(N3CCN(C)CC3)cc21"
measurement_name = "melting point"
result = "242 °C"

[[record]]
compound = "O=S1(=O)c2ccccc2NC(=S)c2ccc(C(F)(F)F)cc21"
measurement_name = "melting point"
result = "275 to 278 °C"

[[record]]
compound = "CCOC(=O)CC(=O)c1cc(Cl)c(F)c(Cl)c1F"
measurement_name = "melting point"
result = "133 °C"

[[record]]
compound = "FC(F)c1cc(-c2ccc(C(F)(F)F)cc2)nc2c(I)ncn12"
measurement_name = "melting point"
result = "159 °C"

[[record]]
compound = "CCCOc1ccccc1Nc1ncc(C(=O)OCC)c(=O)[nH]1"
measurement_name = "melting point"
result = "198 to 200 °C"

[[record]]
compound = "COC(/C=C/c1cccc(Cl)c1)=N/c1ccc(C(O)c2cncn2Cc2ccc(C#N)cc2)cc1 (configuration not stated)"
measurement_name = "melting point"
result = "192 °C"

[[record]]
compound = "OCCSC(=S)Nc1ccc(Cl)cn1"
measurement_name = "melting point"
result = "108 °C"

[[record]]
compound = "CC1(Cn2c(=O)oc3ccc(-c4ccccc4)cc32)Cn2cc([N+](=O)[O-])nc2O1 (configuration not stated)"
measurement_name = "melting point"
result = "254 to 255 °C"


So what does the record say about melting point for CC(Oc1ccc([N+](=O)[O-])cc1[N+](=O)[O-])C(=O)O (configuration not stated) ?
167 to 171 °C

Which value of melting point has been reported for `Clc1cnn2c(-c3ccccn3)ccnc12` in the records?
141 to 143 °C

Looking for the measured melting point of `Cc1ccc(C)c(NC(=O)CCc2ccc(O)c(N)c2)c1` , can you help?
162 to 163 °C

Can you look up the measured melting point of `CC(C)CC(=O)Nc1cccc(-c2ccnc3c(-c4cccc(C#N)c4)cnn23)c1` for me?
166 to 167 °C

Name the recorded melting point for `CCCCN1C(=O)c2cncnc2N(C(=O)CN2CCN(C)CC2)c2ccccc21` .
153 to 154 °C

Using the record for `NCc1ccc(N2CCN(c3ccc(CCC(=O)O)cc3)C2=O)cc1` , report its melting point.
> 260 °C

What measured melting point goes with `Cn1c(C(F)(F)F)cc(=O)n(-c2c(F)cc(Cl)c3nc(C(Br)Br)oc23)c1=O` ?
144 to 146 °C

Report melting point for `CCCn1c(CCO)nc(C(C)C)c1Sc1cc(Cl)cc(Cl)c1` please.
88 to 89 °C

Fill blank: measured melting point of the compound `N#CC[C@@H](O)CC(=O)NN` is ____.
134 to 136 °C

Consider the compound `CN1Cc2c(F)ccc3scc(c23)S1(=O)=O` and give its measured melting point.
175 °C

Field request: melting point | item: `Cc1[nH]cnc1CSCCNc1ncc(Cc2ccccc2)cc1C#N`
105 to 106 °C

Quick check: melting point of `CCOc1cccc(-c2ccnc3c(C(=O)c4cccs4)cnn23)c1` ?
146 to 148 °C

Sample `Cc1ccccc1-c1nc(N)ncc1-c1ccc(=O)n(C(C)C)n1` — what was its melting point?
203 °C

I'd like to know its melting point. The compound in question is Clc1ccc([C@@]2(Cn3ccnc3)OC[C@H](COc3ccc4c(c3)CCNC4)O2)c(Cl)c1 (racemic)
143 to 145 °C

Quick check: melting point of COC(=O)C1(C)CC(C(=O)Nc2ccc(I)cc2)=NN1c1ccc(F)cc1 (configuration not stated) ?
84 to 85 °C

Fill in: melting point of `O=C(O)C1(c2ccco2)CC1` is ___
113 to 114 °C

Which melting point is listed for `N#Cc1cc(C(=O)c2cccs2)ccc1O` ?
216 °C

Tell me the measured melting point of `Nc1ccnc2cc(Br)cnc12` , please.
168 to 169 °C

Entry `NC(=S)c1ccc2c(c1)Nc1ccccc1S2` : reported melting point = ?
208 to 209 °C

# get_value(readout='melting point', item= `COc1cc(Nc2nccc(-c3ccccc3)n2)cc(OC)c1OC` )
187 °C

Endpoint output: melting point of Cc1ccc(C)n1Nc1ccc(N2CC(C)OC(C)C2)nn1 (configuration not stated) . Value?
147 to 148 °C

// lookup melting point for `CSc1cc2c(cc1C(F)(F)F)N(C(=O)Nc1ccccc1)CC2`
163 to 165 °C

# melting point lookup, item `COc1ccnc(Cc2cnc(NCCSCc3nc[nH]c3C)[nH]c2=O)c1`
128 to 130 °C
